MEASUREMENT TARGET: YBX1 (UniProt P67809)
Sequence (P67809 whole entry, looked up): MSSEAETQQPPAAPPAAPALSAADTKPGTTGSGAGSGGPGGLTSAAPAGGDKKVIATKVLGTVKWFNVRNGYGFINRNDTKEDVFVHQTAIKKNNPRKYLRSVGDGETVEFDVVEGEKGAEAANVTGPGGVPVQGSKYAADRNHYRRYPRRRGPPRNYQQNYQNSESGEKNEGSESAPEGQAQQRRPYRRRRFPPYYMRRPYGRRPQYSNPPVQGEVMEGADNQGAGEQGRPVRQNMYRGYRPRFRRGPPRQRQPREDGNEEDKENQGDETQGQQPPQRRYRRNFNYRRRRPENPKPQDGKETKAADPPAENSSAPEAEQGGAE
ASSAY INFO: log2 fold change, soluble protein after heating vs DMSO (PISA); higher = thermal stabilisation; K562 cells, 10 uM, 30 min; active = over 0.2 and 3.5 SD of the protein, either way, in both replicates (recomputed)
Targets with a hit are over-represented here; the source holds about 7,900 in all. About 0.6% of all pairs of compound and target were hits.
Here, each record is paired with measured log2 fold change data.
In your answer, state the number alone without any accompanying words.

Use the examples below as a reference point.
COc1cc(C(=O)O)ccc1NC(=O)[C@@H]1N[C@@H](CC(C)(C)C)[C@](C#N)(c2ccc(Cl)cc2F)[C@H]1c1cccc(Cl)c1F [idasanutlin]; 0.159
COc1ccc(Cn2ccc3ccc(C(=O)NO)cc32)cc1; -0.019
C#Cc1cccc(Nc2ncnc3cc(OCCOC)c(OCCOC)cc23)c1 [erlotinib]; -0.173

-- ask I have this compound here, CC[C@H](C)n1cc(C)c2c(C(=O)NCc3c(C)cc(C)[nH]c3=O)cc(-c3ccc(N4CCNCC4)nc3)cc21 , and I need its recorded log2 fold change.
-- reply -0.063

-- ask GET /values?readout=log2 fold change&item= CN(CCOc1ccc(C[C@@H]2SC(=O)NC2=O)cc1)c1ccccn1 (racemic) [rosiglitazone]
-- reply -0.074

-- ask // lookup log2 fold change for CNCc1ccc(-c2[nH]c3cc(F)cc4c3c2CCNC4=O)cc1 [rucaparib]
-- reply 0.253

-- ask Report log2 fold change for FC(F)(F)c1ccc(/C=C/c2nc(COc3ccc(CCCCn4ccnn4)cc3)co2)cc1 [mubritinib] please.
-- reply -0.031

-- ask Would you kindly share the measured log2 fold change for CN1CCC(CNc2ccc3ncc(-c4cccc(OC(F)(F)F)c4)n3n2)CC1 ?
-- reply 0.348

-- ask Entry CCCS(=O)(=O)Nc1ccc(F)c(C(=O)c2c[nH]c3ncc(-c4ccc(Cl)cc4)cc23)c1F [vemurafenib] : reported log2 fold change = ?
-- reply -0.12

-- ask Please look up its log2 fold change: CC[C@H](C)[C@H](NC(=O)[C@H]([C@@H](C)CC)N(C)C(C)=O)C(=O)N[C@H](C(=O)N[C@@H](CC(C)C)C(=O)[C@@]1(C)CO1)[C@@H](C)O [epoxomicin]
-- reply -0.191

-- ask Consider the compound shown here: CON(C)C(=O)N1N=C(c2cc(F)ccc2F)S[C@@]1(CCCN)c1ccccc1 [filanesib] What is its recorded log2 fold change?
-- reply 0.202

-- ask I'd like to know its log2 fold change. The compound in question is CCCS(=O)(=O)Nc1ccc(F)c(C(=O)c2c[nH]c3ncc(Cl)cc23)c1F
-- reply -0.137

-- ask Name the recorded log2 fold change for CC[C@@H]1C(=O)N(C)c2cnc(Nc3ccc(C(=O)NC4CCN(C)CC4)cc3OC)nc2N1C1CCCC1 .
-- reply 0.262
